// provenance: patent US20090291081A1

The entries below come with measured IL-1α IC50 values attached.
Molecular target: T1, human IL-1α (human, UniProt P01583 113-271)
T1 sequence (looked up): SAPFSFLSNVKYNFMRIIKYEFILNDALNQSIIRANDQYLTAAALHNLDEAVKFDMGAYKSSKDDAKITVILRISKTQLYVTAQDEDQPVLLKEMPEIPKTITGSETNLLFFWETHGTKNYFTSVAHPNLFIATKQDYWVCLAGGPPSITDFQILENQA
Assay: cell-based or functional assay

{"binder": "ABT2-108-603/ABT1-122 hu IgG1/K wt (bispecific antibody, V domains shown) VH: EVQLLESGGGLVQPGGSLRLSCAASGFTFAEYTMMWVRQAPGKGLEWVSRITDAGKNTYYADSVKGRFTISRDNSKNTLYLQMNSLRAEDTAVYYCAKYTGRVGVHHLFDYWGQGTLVTVSS VL: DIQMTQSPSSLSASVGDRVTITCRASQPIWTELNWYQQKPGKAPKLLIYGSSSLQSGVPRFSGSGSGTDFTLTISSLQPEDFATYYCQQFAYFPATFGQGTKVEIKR", "IL-1α IC50 / nM": 1500}
{"binder": "ABT2-108-617/ABT1-122 hu IgG1/K wt (bispecific antibody, V domains shown) VH: EVQLLESGGGLVQPGGSLRLSCAASGFTFAEYTMMWVRQAPGKGLEWVSRIGQDGKNTYYADSVKGRFTISRDNSKNTLYLQMNSLRAEDTAVYYCAKYTGRIFTHHLFDYWGQGTLVTVSS VL: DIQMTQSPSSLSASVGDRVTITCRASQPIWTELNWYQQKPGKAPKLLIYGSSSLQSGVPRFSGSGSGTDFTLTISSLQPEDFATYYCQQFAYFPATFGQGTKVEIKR", "IL-1α IC50 / nM": 150}
{"binder": "ABT2-108-538x/ABT1-95-A3 hu IgG1mut 234, 235/K (bispecific antibody, V domains shown) VH: EVQLLESGGGLVQPGGSLRLSCAASGFTFADEGMMWVRQAPGKGLEWVSRITYSGKNTYYADSVKGRFTISRDNSKNTLYLQMNSLRAEDTAVYYCAKYTGRILGHHLFDYWGQGTLVTVSS VL: DIQMTQSPSSLSASVGDRVTITCRASKPGVRNMRWYQQKPGKAPKLLIYSVSYLEPGVPSRFSGSGSGTDFTLTISSLQPEDFATYHCLQGYRWPPTFGQGTKVEIKR", "IL-1α IC50 / nM": 0.095}
